Exercise: state measured Kd for each of the binders provided.
Target: T1, His-tagged B7-H3 protein (ThermoFisher, catalog #B7-H3_NP_001019907) (Homo sapiens (Human), UniProt Q5ZPR3 29-466)
T1 construct: Bought protein immobilised for SPR; also called ligand; target protein; not shown: His tag
T1 sequence: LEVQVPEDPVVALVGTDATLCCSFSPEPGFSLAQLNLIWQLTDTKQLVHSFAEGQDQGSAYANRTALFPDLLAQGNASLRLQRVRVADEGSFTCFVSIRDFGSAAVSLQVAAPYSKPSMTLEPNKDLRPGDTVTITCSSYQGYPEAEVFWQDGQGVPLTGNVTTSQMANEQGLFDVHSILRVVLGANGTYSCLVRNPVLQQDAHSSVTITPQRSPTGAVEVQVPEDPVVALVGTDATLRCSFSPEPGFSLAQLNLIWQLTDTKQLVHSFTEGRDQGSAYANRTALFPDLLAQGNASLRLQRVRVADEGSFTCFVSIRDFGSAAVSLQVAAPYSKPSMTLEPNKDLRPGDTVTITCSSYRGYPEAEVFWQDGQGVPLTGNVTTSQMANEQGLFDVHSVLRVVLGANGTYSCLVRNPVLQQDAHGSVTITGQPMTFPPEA
Assay: SPR (as in Example 2)
Numbers only, in nM.

CAXEKIAALSEIIWLPCLTYAQIXAFIAALNDDPCQSSEILSEAKELCS (designed binder, (Kme3) trimethyllysine at 3; (Kme2) dimethyllysine at 24; N-terminal Biotin-PEG4; C-terminal NH2; two disulfide bridges among Cys1, Cys17, Cys35, Cys48, also called C298) [Compound C234] | 1.36
CAXEKIAALSEIIWLPCLNYAQIXAFIAALNDDPCQSSEILSEAXELCS (designed binder, (Kme3) at 3; (Kme) at 24 and 45; N-terminal Biotin-PEG4; C-terminal NH2; two disulfide bridges among Cys1, Cys17, Cys35, Cys48) [Compound C310] | 0.782

Record Kd per entry; entries follow.
1. CAXEKIAALSEIIWLPCLTYAQIXAFIAALNDDPCQSSEILSEAXELCS (designed binder, (Kme3) at 3; (Kme) at 24 and 45; N-terminal Biotin-PEG4; C-terminal NH2; two disulfide bridges among Cys1, Cys17, Cys35, Cys48) [Compound C304]
2. CAXEKIAALSEIIWLPCLTYAQIXAFIARLNDDPCQSAEILSEAXELCS (designed binder, (Rme) methylated arginine at 3; (Kme) at 24 and 45; N-terminal Biotin-PEG4; C-terminal NH2; two disulfide bridges among Cys1, Cys17, Cys35, Cys48) [Compound C316]
3. CAXEKIAALSEIIWLPCLTYAQIXAFIAXLNXDPCQSSEILSEAXELCS (designed binder, (Kme3) at 3; (Kme2) at 24; (Kme) at 29 and 45; (Cit) citrulline at 32; N-terminal Biotin-PEG4; C-terminal NH2; two disulfide bridges among Cys1, Cys17, Cys35, Cys48) [Compound C318]
4. CAREKIAALSEIIWLPCLTYAQIXAFIAALNDDPCQSANILSEAXELCS (designed binder, (Kme) monomethyllysine at 24 and 45; N-terminal Biotin-PEG4; C-terminal NH2; two disulfide bridges among Cys1, Cys17, Cys35, Cys48) [Compound C302]
5. CAXEKIAALSEIIWLPCLTYAQIXAFIAXLNXDPCQSSEILSEAXELCS (designed binder, (Kme3) at 3; (Kme) at 24, 29, 32 and 45; N-terminal Biotin-PEG4; C-terminal NH2; two disulfide bridges among Cys1, Cys17, Cys35, Cys48) [Compound C308]

1. 1.43
2. 0.621
3. 1.24
4. 0.558
5. 0.482

Batch lookup, Kd per entry.
1. CAXEKIAALSEIIWLPCLTYAQIXAFIAALNDDPCNSSEILSEAXELCS (designed binder, (Kme3) at 3; (Kme) at 24 and 45; N-terminal Biotin-PEG4; C-terminal NH2; two disulfide bridges among Cys1, Cys17, Cys35, Cys48) [Compound C312]
2. CAXEKIAALSEIIWLPCLTYAQIXAFIXALNDDPCQSSEILSEAXELCS (designed binder, (Kme3) at 3; (Kme) at 24, 28 and 45; N-terminal Biotin-PEG4; C-terminal NH2; two disulfide bridges among Cys1, Cys17, Cys35, Cys48) [Compound C306]

[0.485, 0.761]

Which Kd is listed for CAREKIAALSEIIWLPCLTYAQIXAFIAALNDDPCQSAEILSEAKELCS (designed binder, (Kme2) at 24; N-terminal Biotin-PEG4; C-terminal NH2; two disulfide bridges among Cys1, Cys17, Cys35, Cys48) [Compound C300] ?
0.506
